- test.system: EGFRL858R + T790M (Homo sapiens, UniProt P00533, L858R/T790M)
- Sequence (P00533 25-1210 T790M/L858R): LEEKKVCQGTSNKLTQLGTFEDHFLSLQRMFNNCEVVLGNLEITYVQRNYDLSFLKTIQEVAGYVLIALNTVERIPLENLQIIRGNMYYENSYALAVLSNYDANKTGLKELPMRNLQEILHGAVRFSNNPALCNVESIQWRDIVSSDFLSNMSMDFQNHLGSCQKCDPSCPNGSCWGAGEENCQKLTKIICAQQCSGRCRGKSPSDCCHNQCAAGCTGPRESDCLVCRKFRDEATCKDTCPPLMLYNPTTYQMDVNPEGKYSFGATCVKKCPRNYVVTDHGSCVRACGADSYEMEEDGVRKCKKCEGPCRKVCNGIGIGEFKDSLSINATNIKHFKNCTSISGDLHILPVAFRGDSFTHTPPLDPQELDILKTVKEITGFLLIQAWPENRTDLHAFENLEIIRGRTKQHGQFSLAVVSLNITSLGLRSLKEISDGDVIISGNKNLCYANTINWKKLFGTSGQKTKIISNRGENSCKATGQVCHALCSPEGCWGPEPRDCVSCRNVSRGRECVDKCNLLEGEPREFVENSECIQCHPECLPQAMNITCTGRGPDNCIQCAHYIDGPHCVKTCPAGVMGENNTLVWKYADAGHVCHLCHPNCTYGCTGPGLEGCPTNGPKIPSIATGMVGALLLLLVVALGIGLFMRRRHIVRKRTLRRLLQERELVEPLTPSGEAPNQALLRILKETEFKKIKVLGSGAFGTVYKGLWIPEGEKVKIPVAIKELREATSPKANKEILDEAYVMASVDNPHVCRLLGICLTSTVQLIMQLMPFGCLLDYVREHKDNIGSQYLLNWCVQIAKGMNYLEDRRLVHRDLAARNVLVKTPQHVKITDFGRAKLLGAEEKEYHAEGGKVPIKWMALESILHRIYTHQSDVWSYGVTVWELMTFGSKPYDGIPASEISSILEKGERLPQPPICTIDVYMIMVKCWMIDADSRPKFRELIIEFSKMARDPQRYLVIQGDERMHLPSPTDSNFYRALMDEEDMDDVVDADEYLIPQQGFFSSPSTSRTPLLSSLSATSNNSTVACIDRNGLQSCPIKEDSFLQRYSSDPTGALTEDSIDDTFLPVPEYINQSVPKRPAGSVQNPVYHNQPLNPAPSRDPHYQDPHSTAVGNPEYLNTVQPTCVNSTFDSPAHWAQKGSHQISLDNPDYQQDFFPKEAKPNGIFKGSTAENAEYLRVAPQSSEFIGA
- test.details: In vitro enzymatic activity assay (Z'-LYTE), EGFR L858R + T790M
- condition: Z'-LYTE FRET peptide assay; read-out: EGFRL858R + T790M kinase activity (IC50)
assay.endpoint: IC50

### Prompt // query IC50 value for entry `C=CC(=O)Nc1cccc(N2C(=O)N(c3ccc(F)c(Cl)c3)Cc3cnc(Nc4ccc(N5CCN(C)CC5)cc4OC)nc32)c1`
### Response ≤ 10 nM

### Prompt Thanks! And `C=CC(=O)Nc1cccc(N2C(=O)N(c3cccc([N+](=O)[O-])c3)Cc3cnc(Nc4ccc(N5CCN(C)CC5)cc4OC)nc32)c1` ?
### Response 10 to 100 nM

### Prompt Can you handle `C=CC(=O)Nc1cccc(N2C(=O)N(C)Cc3cnc(Nc4ccc(N5CCN(C)CC5)cc4OC)nc32)c1` next?
### Response ≤ 10 nM

### Prompt Check `C=CC(=O)Nc1cccc(N2C(=O)N(C(C)C)Cc3cnc(Nc4ccc(N5CCN(C)CC5)cc4OC)nc32)c1` too.
### Response ≤ 10 nM

* * *

Listed here: compounds with reported IC50 for EGFRWT (Homo sapiens).

Field: example entries. Status: answers known.
### Prompt Give its IC50 value. Item: `C=CC(=O)Nc1cccc(N2C(=O)N(C)Cc3cnc(Nc4ccc(N5CCC(N(C)C)CC5)cc4OC)nc32)c1`
### Response ≤ 10 nM

### Prompt Quick one: `C=CC(=O)Nc1cccc(N2C(=O)N(c3ccccc3)Cc3cnc(Nc4ccc(N5CCN(C)CC5)cc4OC)nc32)c1`
### Response ≤ 10 nM

### Prompt Next compound: `C=CC(=O)Nc1cccc(N2C(=O)N(C)Cc3cnc(NC)nc32)c1`
### Response 100 to 1000 nM

### Prompt Please do the same for `C=CC(=O)Nc1cccc(N2C(=O)N(C)Cc3cnc(Nc4ccc(N5CCSCC5)cc4)nc32)c1` as well.
### Response ≤ 10 nM

### Prompt Subsequent entry: `C=CC(=O)Nc1cccc(N2C(=O)N(C)Cc3cnc(Nc4ccc(N5CCOCC5)cc4OC)nc32)c1`
### Response 10 to 100 nM

Others:
### Prompt Need IC50, item `C=CC(=O)Nc1cccc(N2C(=O)N(c3ccc(Oc4ccccc4)cc3)Cc3cnc(Nc4ccc(N5CCN(C)CC5)cc4OC)nc32)c1`
### Response ≤ 10 nM

### Prompt Another compound to look at: `C=CC(=O)Nc1cccc(N2C(=O)N(C)Cc3cnc(N4CCN(C)CC4)nc32)c1`
### Response ≥ 10000 nM

### Prompt Now try `C=CC(=O)Nc1cccc(N2C(=O)N(c3cccc(Cl)c3)Cc3cnc(Nc4ccc(N5CCN(C)CC5)cc4OC)nc32)c1` .
### Response ≤ 10 nM

### Prompt Another compound to look at: `C=CC(=O)Nc1cccc(N2C(=O)N(c3ccc(F)c(Cl)c3)Cc3cnc(Nc4ccc(N5CCN(C)CC5)cc4OC)nc32)c1`
### Response ≤ 10 nM

* * *

The entries below are paired with their reported IC50.
- test.system: EGFRL858R (Homo sapiens, UniProt P00533, L858R)
- Sequence (P00533 25-1210 L858R): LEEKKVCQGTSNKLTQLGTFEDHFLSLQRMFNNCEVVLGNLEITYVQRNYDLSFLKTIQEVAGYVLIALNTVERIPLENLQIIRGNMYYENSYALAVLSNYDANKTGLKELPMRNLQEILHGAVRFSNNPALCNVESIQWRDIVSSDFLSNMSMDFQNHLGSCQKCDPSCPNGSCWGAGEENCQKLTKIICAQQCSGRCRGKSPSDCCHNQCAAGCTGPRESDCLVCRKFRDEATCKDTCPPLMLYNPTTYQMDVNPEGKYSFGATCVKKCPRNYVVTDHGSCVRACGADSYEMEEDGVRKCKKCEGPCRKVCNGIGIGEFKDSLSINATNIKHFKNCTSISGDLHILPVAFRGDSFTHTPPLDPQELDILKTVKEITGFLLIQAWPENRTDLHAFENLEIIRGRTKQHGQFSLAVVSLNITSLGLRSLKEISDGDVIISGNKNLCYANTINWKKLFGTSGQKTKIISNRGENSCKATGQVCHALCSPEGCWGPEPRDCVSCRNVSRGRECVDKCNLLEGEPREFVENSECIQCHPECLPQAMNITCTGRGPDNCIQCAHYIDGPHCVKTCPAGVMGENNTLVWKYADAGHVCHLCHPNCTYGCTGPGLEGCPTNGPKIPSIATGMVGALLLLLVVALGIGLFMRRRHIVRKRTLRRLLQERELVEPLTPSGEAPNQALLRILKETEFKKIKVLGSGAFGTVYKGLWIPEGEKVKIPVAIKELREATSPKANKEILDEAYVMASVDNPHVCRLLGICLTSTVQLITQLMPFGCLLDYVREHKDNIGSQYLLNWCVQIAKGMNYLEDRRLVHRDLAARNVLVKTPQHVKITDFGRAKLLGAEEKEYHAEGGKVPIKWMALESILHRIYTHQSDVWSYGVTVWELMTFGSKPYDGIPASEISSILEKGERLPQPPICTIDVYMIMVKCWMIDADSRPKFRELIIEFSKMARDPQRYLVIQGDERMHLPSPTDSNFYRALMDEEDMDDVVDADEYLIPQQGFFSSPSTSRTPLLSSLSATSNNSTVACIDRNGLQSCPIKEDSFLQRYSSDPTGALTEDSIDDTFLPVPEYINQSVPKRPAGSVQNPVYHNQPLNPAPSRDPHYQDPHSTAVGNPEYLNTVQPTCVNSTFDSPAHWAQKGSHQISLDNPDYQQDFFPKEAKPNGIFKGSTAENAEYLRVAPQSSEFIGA
- test.details: In vitro enzymatic activity assay (Z'-LYTE), EGFR L858R
- condition: Z'-LYTE FRET peptide assay; read-out: EGFRL858R kinase activity (IC50)

### Prompt Provide the documented IC50 with EGFRL858R (Homo sapiens, UniProt P00533, L858R) as the system for `C=CC(=O)Nc1cccc(N2C(=O)N(C)Cc3cnc(Nc4ccc(N5CCCN(C)CC5)cc4OC)nc32)c1`
### Response ≤ 10 nM

### Prompt // query: `C=CC(=O)Nc1cccc(N2C(=O)N(C)Cc3cnc(Nc4ccc(N5CCC(N(C)C)CC5)cc4OC)nc32)c1`
### Response ≤ 10 nM

### Prompt Query `C=CC(=O)Nc1cccc(N2C(=O)N(c3cccc(Cl)c3)Cc3cnc(Nc4ccc(N5CCN(C)CC5)cc4OC)nc32)c1` next
### Response ≤ 10 nM

### Prompt Continue with `C=CS(=O)(=O)Nc1cccc(N2C(=O)N(C)Cc3cnc(Nc4ccc(N5CCN(C)CC5)cc4OC)nc32)c1`
### Response ≤ 10 nM

### Prompt What about this molecule? `C=CC(=O)Nc1cccc(N2C(=O)N(C)Cc3cnc(Nc4ccc(N5CC[C@@H](N(C)C)C5)cc4OC)nc32)c1`
### Response ≤ 10 nM

### Prompt Subsequent entry: `C=CC(=O)Nc1cccc(N2C(=O)N(C)Cc3cnc(Nc4ccc(OCCOC)cc4OC)nc32)c1`
### Response ≤ 10 nM

Further cases:
### Prompt Lab note: need IC50 with EGFRL858R (Homo sapiens, UniProt P00533, L858R) for entry `C=CC(=O)Nc1cccc(N2C(=O)N(c3ccccc3)Cc3cnc(Nc4ccc(N5CCN(C)CC5)cc4OC)nc32)c1` , please look it up.
### Response ≤ 10 nM

### Prompt Now consider `C=CC(=O)Nc1cccc(N2C(=O)N(C)Cc3cnc(Nc4ccc(N5CCOCC5)cc4OC)nc32)c1` and answer again.
### Response 10 to 100 nM

### Prompt And then `C=CC(=O)Nc1cccc(N2C(=O)N(C)Cc3cnc(Nc4ccc(N5CCCC5)cc4OC)nc32)c1` , what is it?
### Response 10 to 100 nM

### Prompt And what about the molecule `C=CC(=O)Nc1cccc(N2C(=O)N(C)Cc3cnc(Nc4ccc(N5CCC(N(C)C)CC5)cc4)nc32)c1` ?
### Response ≤ 10 nM

### Prompt // repeat for `C=CC(=O)Nc1cccc(N2C(=O)N(C)Cc3cnc(Nc4ccc(N(C)C)cc4OC)nc32)c1` and report
### Response ≤ 10 nM

* * *

Listed next: entries and their corresponding IC50.
- test.system: EGFR T790M kinase (Homo sapiens, UniProt P00533, T790M)
- Sequence (P00533 25-1210 T790M): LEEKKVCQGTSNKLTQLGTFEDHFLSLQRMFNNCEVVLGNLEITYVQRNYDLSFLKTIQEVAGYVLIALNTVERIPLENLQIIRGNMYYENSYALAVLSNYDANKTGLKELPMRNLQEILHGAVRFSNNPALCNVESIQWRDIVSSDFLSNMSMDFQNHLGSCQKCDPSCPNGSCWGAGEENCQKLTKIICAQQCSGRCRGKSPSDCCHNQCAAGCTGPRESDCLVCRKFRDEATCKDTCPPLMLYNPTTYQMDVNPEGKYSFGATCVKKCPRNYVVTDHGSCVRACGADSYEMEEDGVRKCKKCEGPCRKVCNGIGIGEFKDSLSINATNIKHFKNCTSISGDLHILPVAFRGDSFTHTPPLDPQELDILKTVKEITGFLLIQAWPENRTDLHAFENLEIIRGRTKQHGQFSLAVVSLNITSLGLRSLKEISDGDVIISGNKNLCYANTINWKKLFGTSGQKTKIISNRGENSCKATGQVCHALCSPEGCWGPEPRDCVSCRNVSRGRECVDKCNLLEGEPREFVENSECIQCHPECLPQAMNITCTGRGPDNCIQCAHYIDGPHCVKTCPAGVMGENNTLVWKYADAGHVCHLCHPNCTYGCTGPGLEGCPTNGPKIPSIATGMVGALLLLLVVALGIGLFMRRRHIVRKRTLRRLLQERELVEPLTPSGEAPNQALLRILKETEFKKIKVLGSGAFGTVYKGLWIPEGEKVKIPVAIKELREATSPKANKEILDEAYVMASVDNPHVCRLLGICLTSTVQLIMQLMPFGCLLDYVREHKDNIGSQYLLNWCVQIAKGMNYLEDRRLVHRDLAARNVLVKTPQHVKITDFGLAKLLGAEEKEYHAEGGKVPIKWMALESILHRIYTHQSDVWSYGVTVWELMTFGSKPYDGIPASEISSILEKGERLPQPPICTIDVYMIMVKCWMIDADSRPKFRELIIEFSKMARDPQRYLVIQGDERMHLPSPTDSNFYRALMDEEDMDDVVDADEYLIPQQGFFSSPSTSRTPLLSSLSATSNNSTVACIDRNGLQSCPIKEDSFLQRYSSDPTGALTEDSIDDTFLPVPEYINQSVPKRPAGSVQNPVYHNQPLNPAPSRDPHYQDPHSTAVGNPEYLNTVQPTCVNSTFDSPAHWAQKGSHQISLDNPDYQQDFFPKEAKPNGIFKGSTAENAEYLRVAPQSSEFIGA
- test.details: In vitro enzymatic activity assay (Z'-LYTE), EGFR T790M
- condition: Z'-LYTE FRET peptide assay; read-out: EGFRT790M kinase activity (IC50)

Solved entries:
### Prompt Entry C=CC(=O)Nc1cccc(N2C(=O)N(C)Cc3cnc(Nc4ccc(N5CC[C@@H](N(C)C)C5)cc4OC)nc32)c1 [C-EGF15] : reported IC50 = ?
### Response 10 to 100 nM

### Prompt One more molecule: C=CC(=O)Nc1cccc(N2C(=O)N(Cc3ccccc3)Cc3cnc(Nc4ccc(N5CCN(C)CC5)cc4OC)nc32)c1 [C-EGF29]
### Response ≤ 10 nM

### Prompt Follow-up entry: C=CC(=O)Nc1cccc(N2C(=O)N(C)Cc3cnc(Nc4ccc(N5CCOCC5)cc4OC)nc32)c1 [C-EGF08]
### Response 10 to 100 nM

### Prompt Also need C=CC(=O)Nc1cccc(N2C(=O)N(c3ccccc3C)Cc3cnc(Nc4ccc(N5CCN(C)CC5)cc4OC)nc32)c1 [C-EGF39] , thanks.
### Response ≤ 10 nM

### Prompt Likewise for C=CC(=O)Nc1cccc(N2C(=O)N(C)Cc3cnc(Nc4ccc(N5CCN(C)CC5)cc4OC(C)C)nc32)c1 [Compound X006] ?
### Response 10 to 100 nM

New cases:
### Prompt I'd like to know its IC50. The molecule in question is C=CC(=O)Nc1cccc(N2C(=O)N(C)Cc3cnc(Nc4ccc(N5CCN(C)CC5)cc4)nc32)c1 [x001]
### Response ≤ 10 nM

### Prompt Next record, please: C=CC(=O)Nc1cccc(N2C(=O)N(C)Cc3cnc(Nc4ccc(N5CCC(N(C)C)CC5)cc4)nc32)c1 [Compound X004]
### Response ≤ 10 nM

### Prompt Can you handle C=CC(=O)Nc1cccc(N2C(=O)N(C)Cc3cnc(Nc4ccc(N5CCSCC5)cc4OC)nc32)c1 [C-EGF09] next?
### Response 10 to 100 nM

### Prompt # iterate: C=CC(=O)Nc1cccc(N2C(=O)N(C)Cc3cnc(Nc4ccc(N5CCSCC5)cc4)nc32)c1 [Compound X005]
### Response ≤ 10 nM

### Prompt Query C=CC(=O)Nc1cccc(N2C(=O)N(C(C)C)Cc3cnc(Nc4ccc(N5CCN(C)CC5)cc4OC)nc32)c1 [C-EGF24] next
### Response ≤ 10 nM

### Prompt And C=CC(=O)Nc1cccc(N2C(=O)N(C)Cc3cnc(Nc4ccc(N5CCCN(C)CC5)cc4OC)nc32)c1 [C-EGF17] ?
### Response ≤ 10 nM

### Prompt Same question, C=CC(=O)Nc1cccc(N2C(=O)N(c3ccc(-c4ccccc4)cc3)Cc3cnc(Nc4ccc(N5CCN(C)CC5)cc4OC)nc32)c1 [C-EGF30] this time
### Response ≤ 10 nM

### Prompt Repeat for the following molecule: C=CC(=O)Nc1cccc(N2C(=O)N(c3ccc(F)c(Cl)c3)Cc3cnc(Nc4ccc(N5CCN(C)CC5)cc4OC)nc32)c1 [C-EGF38]
### Response ≤ 10 nM

### Prompt Also need C=CC(=O)Nc1cccc(N2C(=O)N(C)Cc3cnc(Nc4ccc(OCCN5CCOCC5)cc4OC)nc32)c1 [Compound X008] , thanks.
### Response 10 to 100 nM

### Prompt Lookup C=CC(=O)Nc1cccc(N2C(=O)N(C)Cc3cnc(Nc4ccc(N(C)C)cc4OC)nc32)c1 [C-EGF23]
### Response 10 to 100 nM
